target: Lysine-specific demethylase 4A (Homo sapiens) (UniProt O75164); assay: qHTS Assay for Inhibitors of JMJD2A-Tudor Domain; conditions: AlphaScreen JMJD2A-Tudor / H3K4me3 peptide binding; series mostly up to 114 µM; also: nearly all actives have a fitted effect of over 50% in size
Sequence (O75164 whole entry, looked up, the tested form may be a part): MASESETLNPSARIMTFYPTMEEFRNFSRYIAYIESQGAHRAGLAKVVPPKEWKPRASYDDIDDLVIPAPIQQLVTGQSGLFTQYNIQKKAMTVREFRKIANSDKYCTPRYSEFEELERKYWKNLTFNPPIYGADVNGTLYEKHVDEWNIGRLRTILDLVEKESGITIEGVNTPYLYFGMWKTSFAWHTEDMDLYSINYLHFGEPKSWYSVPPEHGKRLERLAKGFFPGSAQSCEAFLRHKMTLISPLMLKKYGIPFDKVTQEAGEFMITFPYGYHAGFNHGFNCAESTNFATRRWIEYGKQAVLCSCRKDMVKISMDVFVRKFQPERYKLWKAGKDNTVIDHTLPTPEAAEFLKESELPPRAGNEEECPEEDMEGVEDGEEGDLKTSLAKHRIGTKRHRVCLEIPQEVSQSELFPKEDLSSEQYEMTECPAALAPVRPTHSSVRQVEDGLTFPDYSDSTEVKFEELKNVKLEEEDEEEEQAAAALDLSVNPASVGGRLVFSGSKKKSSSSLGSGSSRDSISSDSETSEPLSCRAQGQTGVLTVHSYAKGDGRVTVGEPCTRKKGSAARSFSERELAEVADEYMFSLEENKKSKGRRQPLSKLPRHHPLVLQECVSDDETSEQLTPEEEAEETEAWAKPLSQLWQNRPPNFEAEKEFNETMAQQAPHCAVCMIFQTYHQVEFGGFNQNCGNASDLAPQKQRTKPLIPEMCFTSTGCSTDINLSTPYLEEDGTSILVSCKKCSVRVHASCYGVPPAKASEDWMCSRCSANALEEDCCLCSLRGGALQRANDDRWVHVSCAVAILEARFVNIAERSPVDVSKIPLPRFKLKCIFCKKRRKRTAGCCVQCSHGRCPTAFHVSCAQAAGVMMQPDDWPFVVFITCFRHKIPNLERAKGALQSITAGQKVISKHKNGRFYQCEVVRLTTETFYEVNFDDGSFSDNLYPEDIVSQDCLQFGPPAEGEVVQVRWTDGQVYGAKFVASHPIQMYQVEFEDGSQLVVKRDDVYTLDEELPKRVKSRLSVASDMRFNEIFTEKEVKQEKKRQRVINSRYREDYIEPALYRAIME
About 17,000 (4.4%) of roughly 390,000 compounds were called active. About 8% were inconclusive and are not listed. Calls follow the shape of the dose curve; as a rule, active = well fitted inhibition curve with a large enough effect; inconclusive = small, poorly fitted or top-dose-only effect; inactive = no such curve, though single readings can be large or run the other way. Only a selection was taken, and actives are over-represented in it overall.
Possible outcomes: Yes (active), No (inactive)

> print(dat)
                                    molecule  grouplabel
 1          COc1cc(OC)cc(C(=O)NCCCn2ccnc2)c1          No
 2               O=C(CC(=O)c1cccnc1)c1ccccc1          No
 3                S=C(NCCC1=CCCCC1)Nc1ccccc1          No
 4  Cn1c(=O)n(C)c2cc(C(=O)Nc3ccc(Br)cc3)ccc21          No
 5  CCc1cccc(-n2nnc(-c3nsc(NC(=O)c4ccc(C)cc4)n3)c2C)c1          No
 6  COc1cccc2cc(-c3nc(Cl)c4c5c(sc4n3)CC(C)CC5)c(=O)oc12 (stereo not drawn)          No
 7  Cc1ccc(NC(=O)Cc2ccc(NC(=O)N3CCCCc4ccccc43)cc2)cc1          No
 8  Cc1nnc(SCC(=O)NNC(=O)c2ccc(Cl)cc2)n1CC1CCCO1 (stereo not drawn)          No
 9  COc1cccc(-c2nn(-c3ccccc3)cc2/C=C(\C#N)C(=O)NCCCn2ccnc2)c1         Yes
10  O=C(O)CSC(NC(=O)c1cccnc1)(C(F)(F)F)C(F)(F)F         Yes
11   O=C(Nc1ccc(CN2CCOCC2)cc1)c1cc(Cl)ccc1Cl          No
12                  Clc1ccc(CN2CCCCCC2)cc1Cl         Yes
13  Cc1ccc(CCNC(=O)C2CCN(c3nnc(-n4cccc4CNc4ccc(C)cc4)s3)CC2)cc1          No
14             O=C(NNC(=O)c1cccnc1)Nc1ccccc1          No
15  CCCN1CCN(CCCNC(=O)c2ccc3nc(Cc4ccccc4)oc3c2)CC1          No
16  O=C(CCS(=O)(=O)c1ccc2c(c1)NC(=O)CO2)Nc1cccc(C(F)(F)F)c1          No
17  CCC1CCCCN1C(=S)Nc1ccc(S(=O)(=O)Nc2ncccn2)cc1 (stereo not drawn)         Yes
18  Cc1ccc2oc(=O)c3cnn(CC(=O)N4CCN(c5cccc(Cl)c5)CC4)c3c2c1          No
19  S=c1[nH]nc(-c2ccc(Cl)cc2)n1CC1CCCO1 (stereo not drawn)         Yes
20    COc1ccc(/C=C(\C#N)C(=O)NCCCn2ccnc2)cc1          No
21  Cc1ccc(NC2=C(c3ccc(C(F)(F)F)cc3)C(=O)c3ccccc32)cc1F          No
22  COc1ccc(CCNC2=C(Cl)C(=O)N(Cc3ccccc3)C2=O)cc1OC          No
23  CCC1CCCCN1C(=S)Nc1ccc(C(C)=O)cc1 (stereo not drawn)          No

Data provenance is PubChem BioAssay AID504339.
